- Tested on: NCI-H322M lung
- Experiment Description: NCI-60 one-dose screen, 48 h
- Stated Conditions: 10 µM unless noted
Compounds without any hit were thinned out: in the full panel of roughly 83,000, 20% have a hit. Calls of active or inactive are those of the source. Rule for the calls: active = growth percent below 10; inactive = the rest.
Outcomes: yes (1) (active), no (0) (inactive)

[[record]]
molecule = "O=C(/C=C/c1sc(Cl)nc1Cl)c1ccccc1"
qualitative_label = "no (0)"

[[record]]
molecule = "Cc1ccc2sc3c(NCCCN)nc4ccccc4c3c(=O)c2c1"
qualitative_label = "no (0)"

[[record]]
molecule = "Cc1nc2cnc(N)c(C#Cc3cncc(C(=O)Nc4ccc(CN5CCN(C)CC5)c(C(F)(F)F)c4)c3)c2nc1C"
qualitative_label = "yes (1)"

[[record]]
molecule = "CC(=O)CC(c1cccs1)c1c(-c2ccccc2)[nH]c2ccccc12 (stereo unspecified)"
qualitative_label = "no (0)"

[[record]]
molecule = "Cc1cc2nc3cc(C)c(N)cc3[n+](-c3ccccc3)c2cc1N"
qualitative_label = "no (0)"

[[record]]
molecule = "N/C(=N\\c1nc2ccccc2s1)NC(=O)Nc1cccc2ccccc12"
qualitative_label = "no (0)"

[[record]]
molecule = "O=c1cc(SCc2ccccc2)nc[nH]1"
qualitative_label = "no (0)"

[[record]]
molecule = "COc1cccc2nc3n(c12)C(c1c(F)cccc1F)SC3 (stereo unspecified)"
qualitative_label = "no (0)"

[[record]]
molecule = "CCCCCCNC(=O)Oc1ccc(/C(=C(\\C)c2ccc(Cl)cc2)c2ccc(OCCN(CC)CC)cc2)cc1"
qualitative_label = "no (0)"

[[record]]
molecule = "OC(COc1ccccc1Cl)CN1CCN(c2cccc(Cl)c2)CC1 (stereo unspecified)"
qualitative_label = "no (0)"

[[record]]
molecule = "COC(=O)Nc1ccc(-c2nc(-c3cccc(OC)c3)c(-c3ccnc(Br)c3)[nH]2)cc1"
qualitative_label = "no (0)"

[[record]]
molecule = "N#Cc1cccc(NC(=O)c2cc(-c3ccc(F)cc3F)ccc2O)c1"
qualitative_label = "yes (1)"

[[record]]
molecule = "CCCCCCCNC(=O)CCCNc1ncnc2c1ncn2-c1cccc(C(C)O)c1 (stereo unspecified)"
qualitative_label = "no (0)"

[[record]]
molecule = "COc1nc2ccc(C)cc2cc1-c1nc2c(cnn2-c2ccccc2)c(=O)[nH]1"
qualitative_label = "no (0)"

[[record]]
molecule = "CCCCCCCCCCCCCCCCCCOc1ccc(CC(=O)OCC[N+](C)(C)C)cc1"
qualitative_label = "no (0)"

[[record]]
molecule = "O=C(CCN1C(=O)/C(=C/c2ccc(O)cc2)SC1=S)Nc1ccccc1"
qualitative_label = "no (0)"

[[record]]
molecule = "Cc1cccc2c3c(sc12)C(c1ccc(Cl)cc1)C(C#N)=C(/N=C/c1ccc(Cl)cc1)O3 (stereo unspecified)"
qualitative_label = "no (0)"

[[record]]
molecule = "CC1Cc2ccccc2N1NC(=O)c1ccc(Cl)c(S(N)(=O)=O)c1 (stereo unspecified)"
qualitative_label = "no (0)"

[[record]]
molecule = "COc1ccc(C2C(N)=NNC2c2cccc(O)c2)cc1 (stereo unspecified)"
qualitative_label = "no (0)"

[[record]]
molecule = "NCCCNc1nc2ccccc2c2c(=O)c3cc(OC(F)(F)F)ccc3sc12"
qualitative_label = "no (0)"

[[record]]
molecule = "O=C1CN(CCN2CC(=O)N(Cc3ccccc3)C(=O)C2)CC(=O)N1Cc1ccccc1"
qualitative_label = "no (0)"

